targetEntity: NMDA receptors (Rattus norvegicus, UniProt P35439)
Construct: Patch clamp recordings were made from these neurones; endogenous in cells; host or cells: primary cultured hippocampal neurones from rat embryos (E20 to E21)
assayMethodText: Patch clamp, NMDA-induced currents in hippocampal neurones
Type: cell-based
testConditions: Table 1; mean, N=6; read-out: NMDA IC50
observable: IC50 (µM)

1. CCC1(CC)CC(=CC(C)N)CC(C)(C)C1 (stereo not shown) ... 2.74

A. CC1(C)CC(=CCCN)CC(C)(C)C1
B. C=C[C@@]1(C)C[C@H](C)C[C@@](C)(N)C1 (relative stereo)
C. C=CC1(CCN)CC(C)(C)CC(C)(C)C1
Ascending by IC50, please. Answer with the labels in sequence, matching the requested order.
C, A, B
(C: 0.1 µM, A: 37.1 µM, B: 58.2 µM)

###

targetEntity: NR1a/2A receptors (Homo sapiens, UniProt Q05586+Q12879)
Construct: expressed in transfected cells; host or cells: Xenopus laevis oocytes injected with subunit RNA
Sequence (Q12879 23-1464, other chains not shown): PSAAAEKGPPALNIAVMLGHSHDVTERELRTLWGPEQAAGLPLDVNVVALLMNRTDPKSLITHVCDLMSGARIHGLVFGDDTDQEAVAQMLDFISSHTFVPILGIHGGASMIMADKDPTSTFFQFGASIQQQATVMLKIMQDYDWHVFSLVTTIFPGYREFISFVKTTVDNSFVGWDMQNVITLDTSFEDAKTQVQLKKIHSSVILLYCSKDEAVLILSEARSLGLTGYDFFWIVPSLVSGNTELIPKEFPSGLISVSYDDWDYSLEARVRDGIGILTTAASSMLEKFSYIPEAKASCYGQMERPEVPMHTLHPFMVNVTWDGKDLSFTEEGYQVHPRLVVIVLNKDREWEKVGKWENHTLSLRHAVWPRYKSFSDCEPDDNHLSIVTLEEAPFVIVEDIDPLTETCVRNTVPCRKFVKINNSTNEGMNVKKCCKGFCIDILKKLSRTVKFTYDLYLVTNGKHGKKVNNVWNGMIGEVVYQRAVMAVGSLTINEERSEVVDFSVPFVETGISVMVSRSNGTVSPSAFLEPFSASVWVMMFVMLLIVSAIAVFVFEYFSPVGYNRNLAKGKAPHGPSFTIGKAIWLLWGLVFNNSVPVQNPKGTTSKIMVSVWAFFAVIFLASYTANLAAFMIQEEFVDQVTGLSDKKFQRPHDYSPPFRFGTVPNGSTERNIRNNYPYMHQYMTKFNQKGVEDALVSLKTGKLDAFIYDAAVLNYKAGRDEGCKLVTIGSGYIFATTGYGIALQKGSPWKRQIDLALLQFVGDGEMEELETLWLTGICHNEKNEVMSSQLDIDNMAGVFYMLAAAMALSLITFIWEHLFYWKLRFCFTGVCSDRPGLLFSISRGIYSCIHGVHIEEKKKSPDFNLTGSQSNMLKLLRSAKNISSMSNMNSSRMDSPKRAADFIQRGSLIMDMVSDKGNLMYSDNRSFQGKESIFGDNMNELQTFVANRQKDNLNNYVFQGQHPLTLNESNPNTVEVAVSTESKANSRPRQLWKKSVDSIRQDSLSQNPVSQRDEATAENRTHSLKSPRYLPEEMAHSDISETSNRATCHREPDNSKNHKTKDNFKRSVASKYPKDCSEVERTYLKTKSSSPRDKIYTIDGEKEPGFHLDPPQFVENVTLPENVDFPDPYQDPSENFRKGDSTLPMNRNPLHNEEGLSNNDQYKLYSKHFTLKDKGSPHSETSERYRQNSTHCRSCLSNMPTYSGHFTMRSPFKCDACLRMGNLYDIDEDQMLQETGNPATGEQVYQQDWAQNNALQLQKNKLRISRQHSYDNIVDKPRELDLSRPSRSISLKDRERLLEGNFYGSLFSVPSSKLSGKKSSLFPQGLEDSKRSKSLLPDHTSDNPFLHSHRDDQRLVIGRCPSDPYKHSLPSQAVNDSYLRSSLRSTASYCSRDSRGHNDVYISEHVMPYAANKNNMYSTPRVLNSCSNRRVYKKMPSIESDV
assayMethodText: NMDA receptor blockade in Xenopus oocytes, two-electrode voltage clamp
Type: cell-based
testConditions: Xenopus oocytes expressing NR1a/2A; glutamate 100 μM, glycine 10 μM, -70 mV
observable: IC50 (µM)
Respond numerically; units are µM and should not be typed.

IC50 for C=CC1(N)CC(C)(C)CC(C)(C)C1 [MRZ 2/759] ?
1.99

###

assayMethodText: Accelerating rotarod test, ataxia (motor coordination)
Assay type: in vivo, mice
testConditions: mouse, in vivo, ip; NMR female mice, accelerating rotarod
ED50 at 30 min values, listed per item
Respond with the bare value in mg/kg.

Sample answers from the record:
1) C=CC1(N)CC(C)(C)CC(C)(C)C1 [MRZ 2/759] ... 15
2) C=CC1(NC)CC(C)(C)CC(C)(C)C1 [MRZ 2021] ... 24.7
3) CC1=CC(C)(N)CC(C)(C)C1 (stereo not drawn) [MRZ 2002, 1,3,5,5-Tetramethyl-2-cyclohexen-1-amine] ... 53
4) CC1(C)C=C(N)CC(C)(C)C1 [MRZ 2/1005] ... 26.8
5) CC1(C)CC(=CCCN)CC(C)(C)C1 [MRZ 2018] ... 26.7

// next entry
Need ED50 at 30 min of CC(N)C1=CC(C)(C)CC(C)(C)C1 (stereo not drawn) [MRZ 2/749] , thanks.
37.1

###

targetEntity: NMDA receptor ([3H]-(+)-MK-801 site) (Rattus norvegicus)
assayMethodText: [3H]-(+)-MK-801 receptor binding, rat cortex membranes
testConditions: read-out: [^3H]MK-801 Ki; rat cortex membranes; [3H]-(+)-MK-801 5 nM, glycine 10 μM, glutamate 10 μM; mean
observable: pKi
Just so you know, pKi here is -log10 of the concentration in molar units; reply with that number alone.

Request body: readout pKi, system NMDA receptor ([3H]-(+)-MK-801 site) (Rattus norvegicus), query CC1=CC(N)CC(C)(C)C1 (stereo not shown) . Return the value.
4.30

###

assayMethodText: Traction reflex test, myorelaxant action
Type: in vivo, mice
testConditions: mouse, in vivo, ip; NMR female mice, i.p., traction reflex; read-out: Myorelaxation ED50
observable: ED50 at 30 min (mg/kg)

Examples with answers:
1) CC1(C)CC(=CCN)CC(C)(C)C1 ... 16.5
2) CC1=CC(C)(N)CC(C)(C)C1 (centres unmarked) ... 34

A. C=CC1(N)CC(C)(C)CC(C)(C)C1
B. CC(N)C=C1CC(C)(C)CC(C)(C)C1 (centres unmarked)
Which record shows the lower ED50 at 30 min: the first, A , or the second, B ? Select an item and report its label.
A

###

Each item that follows carries a reported Therapeutic index (ataxia ED50 / MES ED50).
Tested on: ataxia (rotarod)
assayMethodText: Accelerating rotarod test, ataxia (motor coordination)
Format: in vivo, mice
testConditions: ED50 ataxia divided by ED50 MES
Answer with the value's number alone.

# example entries with known answers
1) C=CCC1(N)CC(C)(C)CC(C)(C)C1 ... 1.3
2) CC(N)C1=CC(C)(C)CC(C)(C)C1 (stereo not shown) ... 1.4
3) C=CCC(CN)C1(C)CC(C)(C)CC(C)(C)C1 (stereo not shown) ... 0.9
4) CC(CN)=C1CC(C)(C)CC(C)(C)C1 ... 1.1
5) C=CC1(CCN)CC(C)(C)CC(C)(C)C1 ... 0.5

Looking for the measured Therapeutic index (ataxia ED50 / MES ED50) of CC1(C)CC(=CCCN)CC(C)(C)C1 , can you help?
0.3

Dear colleague, I am looking for the recorded Therapeutic index (ataxia ED50 / MES ED50) of the following molecule: CC1(C)CC(=CCN)CC(C)(C)C1
0.8

###

assayMethodText: Traction reflex test, myorelaxant action
Format: in vivo, mice
testConditions: mouse, in vivo, ip; NMR female mice, i.p., traction reflex; read-out: Myorelaxation ED50
observable: ED50 at 30 min (mg/kg)

1) CC(N)C1=CC(C)(C)CC(C)(C)C1 (stereo not shown) [MRZ 2/749] ... 38.6
2) CC1(C)CC(=CCCN)CC(C)(C)C1 [MRZ 2018] ... 29.4

###

assayMethodText: Traction reflex test, myorelaxant action
Format: in vivo, mice
testConditions: mouse, in vivo, ip; NMR female mice, i.p., traction reflex; read-out: Myorelaxation ED50
observable: ED50 at 30 min (mg/kg)

Consider the reported ED50 at 30 min for these molecules:
1) C=CCNC1(C)CC(C)(C)CC(C)(C)C1 [MRZ 2026] ... 26.7
2) CC(CN)=C1CC(C)(C)CC(C)(C)C1 [MRZ 2020] ... 34.5
3) C=CCC1(N)CC(C)(C)CC(C)(C)C1 [MRZ 2005] ... 39.8

A. C=CCC(CN)C1(C)CC(C)(C)CC(C)(C)C1 (centres unmarked) [MRZ 2017]
B. C=CC1(CCN)CC(C)(C)CC(C)(C)C1 [MRZ 2014]
Lab notebook, comparison: A versus B , higher ED50 at 30 min goes to which? Identify your pick by its label.
A

###

System: myorelaxation (traction reflex)
assayMethodText: Traction reflex test, myorelaxant action
Type: in vivo, mice
testConditions: ED50 myorelaxation divided by ED50 MES
observable: Therapeutic index (myorelaxation ED50 / MES ED50)
Please state the value as a number alone, without comment.

Answered examples (5):
1. CC1(C)C=C(N)CC(C)(C)C1 [MRZ 2/1005] ... 1.7
2. C=CC1(CCN)CC(C)(C)CC(C)(C)C1 [MRZ 2014] ... 0.3
3. C=CCC1(N)CC(C)(C)CC(C)(C)C1 [MRZ 2005] ... 1.1
4. C=CC1(NC)CC(C)(C)CC(C)(C)C1 [MRZ 2021] ... 1.6
5. CC(CN)=C1CC(C)(C)CC(C)(C)C1 [MRZ 2020] ... 1.3

I'd like to know its Therapeutic index (myorelaxation ED50 / MES ED50). The molecule in question is CC(N)C1=CC(C)(C)CC(C)(C)C1 (stereo not shown) [MRZ 2/749]
1.5

Dear colleague, I am looking for the recorded Therapeutic index (myorelaxation ED50 / MES ED50) of the following molecule: CC1=CC(C)(N)CC(C)(C)C1 (stereo not shown) [MRZ 2002, 1,3,5,5-Tetramethyl-2-cyclohexen-1-amine]
1.3

Query: Therapeutic index (myorelaxation ED50 / MES ED50); subject: CC1(C)CC(=CCN)CC(C)(C)C1 [MRZ 2/1021]
0.6

Requested read-out: Therapeutic index (myorelaxation ED50 / MES ED50). Entry: C=CC1(N)CC(C)(C)CC(C)(C)C1 [MRZ 2/759]
0.9

Name the reported Therapeutic index (myorelaxation ED50 / MES ED50) value associated with the molecule C=CCNC1(C)CC(C)(C)CC(C)(C)C1 [MRZ 2026]
1.1

Which measured Therapeutic index (myorelaxation ED50 / MES ED50) value corresponds to CC(N)C=C1CC(C)(C)CC(C)(C)C1 (stereo not shown) [MRZ 2006] ?
0.8

Entry under review: C=CCC(CN)C1(C)CC(C)(C)CC(C)(C)C1 (stereo not shown) [MRZ 2017] . Reported Therapeutic index (myorelaxation ED50 / MES ED50)?
1.0

So what does the record say about Therapeutic index (myorelaxation ED50 / MES ED50) for CC1(C)CC(=CCCN)CC(C)(C)C1 [MRZ 2018] ?
0.4

###

targetEntity: NMDA receptors (Rattus norvegicus, UniProt P35439)
Construct: Patch clamp recordings were made from these neurones; endogenous in cells; host or cells: primary cultured hippocampal neurones from rat embryos (E20 to E21)
assayMethodText: Patch clamp, NMDA-induced currents in hippocampal neurones
Format: cell-based
observable: IC50 (µM)
// units = µM; emit number, no label

Recorded IC50 for C=CC1(NC)CC(C)(C)CC(C)(C)C1 , please?
12.7

###

# ED50 per record follows
Test system: maximal electroshock (MES) tonic convulsions
assayMethodText: Maximal electroshock (MES) test, anticonvulsive activity
Format: in vivo, mice
testConditions: Mus musculus, ip; NMR female mice, i.p. 30 min before convulsions; read-out: MES ED50
Number in mg/kg, nothing else.

Answered cases to consult:
1. CC(CN)=C1CC(C)(C)CC(C)(C)C1 ... 26.1
2. C=CCNC1(C)CC(C)(C)CC(C)(C)C1 ... 25.4
3. CC(N)C1=CC(C)(C)CC(C)(C)C1 (stereo not shown) ... 26.6
4. C=CC1(N)CC(C)(C)CC(C)(C)C1 ... 14.8
5. C=CCC1(N)CC(C)(C)CC(C)(C)C1 ... 37.3
6. C=CCC(CN)C1(C)CC(C)(C)CC(C)(C)C1 (stereo not shown) ... 36.9

Please give the measured ED50 for this compound: CC1(C)C=C(N)CC(C)(C)C1
20.5

Quick one: ED50 for CC(N)C=C1CC(C)(C)CC(C)(C)C1 (stereo not shown) ?
57

# get_value(readout='ED50', item= CC1(C)CC(=CCN)CC(C)(C)C1 )
29.5

What value of ED50 has been recorded for this entry: CC1(C)CC(=CCCN)CC(C)(C)C1
78.5

Look at this compound and give its reported ED50. C=CC1(CCN)CC(C)(C)CC(C)(C)C1
47.8
